Origin of measurements: patent US20250215100A1

Target: T1, human CD40 on cells (human, UniProt P25942 21-277)
T1 construct: whole, on cells; The cell line used is named in each row's assay; also called hCD40; TNFRSF5
T1 sequence (P25942 21-277): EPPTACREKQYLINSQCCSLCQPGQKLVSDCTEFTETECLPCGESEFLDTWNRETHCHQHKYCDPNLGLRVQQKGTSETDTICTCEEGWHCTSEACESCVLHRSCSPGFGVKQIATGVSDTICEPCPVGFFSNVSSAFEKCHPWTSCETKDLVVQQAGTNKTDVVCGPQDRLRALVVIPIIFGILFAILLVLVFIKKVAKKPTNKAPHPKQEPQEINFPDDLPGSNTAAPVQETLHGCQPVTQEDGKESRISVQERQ
Test: FACS, CHO-K1/hCD40 cells
This listing pairs binders with measured Maximum MFI.
The reply should be a number in MFI, with the unit left off.

So for PR006509 (antibody, human IgG1, kappa, V domains shown, PR003379 variant L:S93L; human IgG1 L234A, L235A, G237A) VH: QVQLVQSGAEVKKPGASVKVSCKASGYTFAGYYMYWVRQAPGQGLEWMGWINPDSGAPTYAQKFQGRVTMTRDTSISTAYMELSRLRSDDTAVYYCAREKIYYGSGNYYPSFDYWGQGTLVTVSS VL: DIQLTQSPSFLSASVGDRVTITCRASQGISSYLAWYQQKPGKAPKLLIYAASTLQSGVPSRFSGSGSGTEFTLTISSLQPEDFATYYCQQLNLYPWTFGQGTKVEIKR , the logged Maximum MFI turned out to be 79600

Pending binder:
Notebook: PR006499 (antibody, human IgG1, kappa, V domains shown, PR003379 variant L:N92W; human IgG1 L234A, L235A, G237A) VH: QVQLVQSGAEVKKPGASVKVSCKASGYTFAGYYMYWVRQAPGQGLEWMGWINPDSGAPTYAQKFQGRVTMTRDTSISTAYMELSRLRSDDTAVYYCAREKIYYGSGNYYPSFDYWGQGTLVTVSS VL: DIQLTQSPSFLSASVGDRVTITCRASQGISSYLAWYQQKPGKAPKLLIYAASTLQSGVPSRFSGSGSGTEFTLTISSLQPEDFATYYCQQLWSYPWTFGQGTKVEIKR , Maximum MFI read as 84200
